Molecular target: KRAS WT (Homo sapiens)
Sequence (P01116 1-188 isoform P01116-2): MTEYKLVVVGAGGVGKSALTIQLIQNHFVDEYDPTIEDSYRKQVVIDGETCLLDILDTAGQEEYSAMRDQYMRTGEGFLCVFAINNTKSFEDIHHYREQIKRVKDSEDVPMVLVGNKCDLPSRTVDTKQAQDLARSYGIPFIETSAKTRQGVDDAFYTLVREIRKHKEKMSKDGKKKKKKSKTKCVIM
pIC50: −log10 of the molar value.
Listing: pIC50 of selected compounds
test-readout: pIC50

>>> print(df.to_string())
                                   compound        result
0  CCc1c(F)ccc2cc(O)cc(-c3c(C)c4nc(OCC5(CN(C)C)CC5)nc(N5CCOCC(C)(O)C5)c4c4cn(C)nc34)c12 (stereo not drawn)        ≥ 8.00
1  CCc1c(F)ccc2cc(O)cc(-c3cc4nc(OCC5CCN(C)CC5)nc(N5CCCOCC5)c4c4cn(C)nc34)c12  5.00 to 7.00
2  CCc1c(F)ccc2cc(O)cc(-c3c(F)c4nc(OCC5(C)CC(OC)CN5)nc(N5CCOCC(C)(O)C5)c4c4cn(C)nc34)c12 (stereo not drawn)        ≥ 8.00
3  Cn1cc2c(n1)c(-c1cc(O)ccc1OC(F)(F)F)cc1nc(OC[C@@]34CCCN3C[C@H](F)C4)nc(N3CCCOCC3)c12  5.00 to 7.00
4  CCc1c(F)ccc2cc(O)cc(-c3c(F)c4nc(OCC5(CN6CCC(F)(F)C6)CC5)nc(N5CCOCC(C)(O)C5)c4c4cn(C)nc34)c12 (stereo not drawn)  7.00 to 8.00
5  CCc1c(F)ccc2cc(O)cc(-c3cc4nc(OCC5(CN6CCOCC6)CC5)nc(N5CCCn6nc(C(=O)N(C)C)cc6C5)c4c4cn(C)nc34)c12  7.00 to 8.00
